Values from PubChem BioAssay

biological target: Receptor tyrosine-protein kinase erbB-2 (Homo sapiens) (UniProt P04626); assay: reducers of endogenous Her2 protein level, primary screen, SKBR3 breast tumor cells, AlphaScreen, ATP viability (AID 461); settings: 18-24 h, at 10 µM, active compounds read low;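 further: lower value means less Her2 protein in the cells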
Sequence (P04626 whole entry, looked up): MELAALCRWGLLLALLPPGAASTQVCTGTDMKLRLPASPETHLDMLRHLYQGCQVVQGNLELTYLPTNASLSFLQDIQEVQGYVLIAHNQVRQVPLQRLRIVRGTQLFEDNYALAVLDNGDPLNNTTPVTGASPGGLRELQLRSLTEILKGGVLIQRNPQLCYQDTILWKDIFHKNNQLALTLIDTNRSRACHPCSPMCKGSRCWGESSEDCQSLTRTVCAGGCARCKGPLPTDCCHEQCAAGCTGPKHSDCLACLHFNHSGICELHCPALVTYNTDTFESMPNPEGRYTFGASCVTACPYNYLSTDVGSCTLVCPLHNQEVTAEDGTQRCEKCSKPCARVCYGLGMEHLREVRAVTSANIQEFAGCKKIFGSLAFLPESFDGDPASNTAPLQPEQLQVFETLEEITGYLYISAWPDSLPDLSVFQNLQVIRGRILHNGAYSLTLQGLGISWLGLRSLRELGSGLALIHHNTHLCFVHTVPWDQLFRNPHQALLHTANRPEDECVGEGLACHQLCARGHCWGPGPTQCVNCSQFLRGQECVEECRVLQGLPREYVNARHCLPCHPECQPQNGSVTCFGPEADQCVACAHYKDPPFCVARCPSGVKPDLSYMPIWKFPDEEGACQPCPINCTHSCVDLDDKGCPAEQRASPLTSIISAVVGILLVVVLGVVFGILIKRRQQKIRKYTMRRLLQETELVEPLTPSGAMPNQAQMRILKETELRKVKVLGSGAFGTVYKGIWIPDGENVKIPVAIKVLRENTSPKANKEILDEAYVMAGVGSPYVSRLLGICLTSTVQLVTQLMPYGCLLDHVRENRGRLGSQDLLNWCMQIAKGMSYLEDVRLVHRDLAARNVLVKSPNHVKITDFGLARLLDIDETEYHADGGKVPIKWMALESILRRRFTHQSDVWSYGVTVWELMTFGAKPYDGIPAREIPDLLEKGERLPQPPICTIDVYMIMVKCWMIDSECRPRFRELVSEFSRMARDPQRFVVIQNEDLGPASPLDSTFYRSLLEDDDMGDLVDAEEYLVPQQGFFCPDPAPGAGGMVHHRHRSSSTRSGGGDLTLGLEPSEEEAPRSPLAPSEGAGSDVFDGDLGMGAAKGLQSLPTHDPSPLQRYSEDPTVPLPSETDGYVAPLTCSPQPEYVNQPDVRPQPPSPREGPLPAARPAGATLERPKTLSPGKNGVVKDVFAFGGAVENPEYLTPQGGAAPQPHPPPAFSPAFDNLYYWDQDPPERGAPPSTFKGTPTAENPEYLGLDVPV
observation-type: Her2 level (%)
Report only the number, with the unit % understood.

Her2 level for CCN(CC)C(=O)C1CCCN(Cc2ccc(N(C)C)cc2)C1 (configuration not stated) ?
96.5

What Her2 level value was documented for this compound, O=C(CSc1nnc2sc3ccccc3n12)c1ccco1 ?
85.5

Field request: Her2 level | item: Cc1nnc(SCC2=C(C(=O)O)N3C(=O)[C@@H](NC(=O)Cn4cnnn4)[C@H]3SC2)s1
99.5

Query (compound): CN1CCCN=C1COC(=O)C(O)(c1ccccc1)C1CCCCC1 (configuration not stated) ; field requested: Her2 level
79.5

Which Her2 level is reported for this compound? CCCN1CCN(C(=O)Cn2c(=O)oc3cc(S(=O)(=O)NCc4ccccc4)ccc32)CC1
95

Query (compound): O=C(O)c1ccc2c(c1)N(Cc1ccccc1F)C(=O)c1ccccc1S2=O (configuration not stated) ; field requested: Her2 level
83.5

Find the recorded Her2 level belonging to O=C(NC1CCN(Cc2nnnn2CCc2ccccc2)CC1)c1ccccc1F and report it.
96

Entry Cc1ccc(O)c(C(CC(=O)N2CCCC2)c2ccccc2)c1 (configuration not stated) : reported Her2 level = ?
101

Fill in the blank: the reported Her2 level of CC(C)(S)[C@@H](N)C(=O)O is ____.
93

Form field: reported Her2 level of Cc1cc(C)nc(NS(=O)(=O)c2ccc(N)cc2)n1
110

***
So what does the record say about Her2 level for c1ccc(CNc2ncnc3ccccc23)cc1 ?
87

Can you look up the measured Her2 level of CN(C)C=Nc1nonc1N for me?
106
